System: TK-10 renal
Assay: NCI-60 one-dose screen, 48 h (100 = growth as untreated, 0 = no growth, -100 = all killed)
Settings: 10 µM unless noted
This is part of a sample that, as a whole, favours compounds with a hit. Of some 83,000 tested, about 20% had one in any assay.
valueKind: growth (%)
Report the value in % with no unit label.

Here is how some compounds turned out for growth.
{"compound": "COc1cc(C2CC(c3ccc(Nc4nc(NCCO)nc(NCCO)n4)cc3)=NN2c2cc(Cl)cc(Cl)c2)cc(OC)c1OC (stereo not given)", "measurementTarget": "TK-10 renal", "growth, %": -25.7}
{"compound": "O=S(=O)(O)c1ccc(N=NSc2ccc3ccccc3c2)cc1", "measurementTarget": "TK-10 renal", "growth, %": 103}
{"compound": "Cc1nccc2c3ccc(OCc4cn(-c5ccc(Cl)cc5)nn4)cc3n(CC(C)C)c12", "measurementTarget": "TK-10 renal", "growth, %": 13.7}
{"compound": "O=C1Nc2ccc(Br)cc2/C1=N\\N=C/c1cn(Cc2ccccc2)c2ccccc12", "measurementTarget": "TK-10 renal", "growth, %": 82.4}

# query: growth of entry CCCCOc1nc2ccc(C)cc2cc1/C=C/C(=O)/C=C/c1ccc2c(c1)OCO2 113
